Data origin, for the record: PubChem BioAssay (NCI)

Assay Details: NCI Yeast Anticancer Drug Screen. Data for the mlh1 rad18 strain (AID 175)
Test Settings: S. cerevisiae mlh1 rad18 strain growth inhibition; at 50.0 µM (retest, dose inferred, filed as 5.0); hits give high values
This is part of a sample that, as a whole, favours compounds with a hit. Of some 79,000 tested, about 15% had one in any assay.
Quick reference for growth inhibition among some molecules
Reply numerically in %, unit not repeated.

Consider the reported growth inhibition for these molecules:
>>> reported_result("Cc1ccccc1Oc1ccccc1N")
39
>>> reported_result("COc1ccc(NC(=S)N/N=C/c2cccc(C)n2)cc1")
95

The value of growth inhibition measured for the molecule CN(C)CCN(C)N=Nc1c(-c2cccs2)n[nH]c1C(F)(F)F turned out to be 100

The value of growth inhibition measured for the molecule Cc1ccccc1NC(=S)N/N=C(/c1ccccc1)c1ccccn1 turned out to be 92

The value of growth inhibition measured for the molecule Sc1c(Br)cc(Br)cc1Br.[Ag] turned out to be 99
